Entries and their potency estimated from few doses values follow.
- target.desc: UniProtKB O95342
- Sequence (O95342 whole entry): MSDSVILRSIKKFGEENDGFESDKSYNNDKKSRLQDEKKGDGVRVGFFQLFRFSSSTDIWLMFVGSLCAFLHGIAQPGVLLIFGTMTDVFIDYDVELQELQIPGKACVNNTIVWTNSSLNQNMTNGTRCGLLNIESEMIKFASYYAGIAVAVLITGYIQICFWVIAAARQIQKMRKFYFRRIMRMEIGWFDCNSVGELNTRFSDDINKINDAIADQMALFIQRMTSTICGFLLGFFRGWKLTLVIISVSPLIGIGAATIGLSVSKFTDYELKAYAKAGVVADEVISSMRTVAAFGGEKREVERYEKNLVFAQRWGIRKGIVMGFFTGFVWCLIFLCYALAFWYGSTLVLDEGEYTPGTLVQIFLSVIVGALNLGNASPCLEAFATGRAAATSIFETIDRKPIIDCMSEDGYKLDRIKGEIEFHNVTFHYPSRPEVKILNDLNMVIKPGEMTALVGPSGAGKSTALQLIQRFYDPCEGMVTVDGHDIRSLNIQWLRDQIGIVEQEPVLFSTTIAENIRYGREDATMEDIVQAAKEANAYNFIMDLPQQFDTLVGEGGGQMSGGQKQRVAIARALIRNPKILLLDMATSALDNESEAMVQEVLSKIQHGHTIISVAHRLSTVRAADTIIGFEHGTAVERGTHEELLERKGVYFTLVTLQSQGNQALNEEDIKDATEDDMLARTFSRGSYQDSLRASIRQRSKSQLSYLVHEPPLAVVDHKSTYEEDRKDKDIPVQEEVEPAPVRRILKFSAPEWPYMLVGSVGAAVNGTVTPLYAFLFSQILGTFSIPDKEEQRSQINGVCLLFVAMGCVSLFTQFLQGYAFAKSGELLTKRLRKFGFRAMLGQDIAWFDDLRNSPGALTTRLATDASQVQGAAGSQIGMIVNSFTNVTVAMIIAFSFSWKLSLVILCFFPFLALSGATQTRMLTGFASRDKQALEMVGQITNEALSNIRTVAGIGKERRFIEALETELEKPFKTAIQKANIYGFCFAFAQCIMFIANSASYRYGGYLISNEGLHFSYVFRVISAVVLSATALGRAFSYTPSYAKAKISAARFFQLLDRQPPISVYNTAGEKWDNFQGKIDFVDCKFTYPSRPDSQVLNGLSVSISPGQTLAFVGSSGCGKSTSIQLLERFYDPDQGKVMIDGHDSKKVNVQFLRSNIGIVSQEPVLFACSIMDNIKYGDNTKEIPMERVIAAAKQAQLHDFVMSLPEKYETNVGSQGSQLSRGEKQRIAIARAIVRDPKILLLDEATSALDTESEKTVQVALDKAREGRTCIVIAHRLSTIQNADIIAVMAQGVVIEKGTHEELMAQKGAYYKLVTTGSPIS
- test.method.notes: Inhibitor of BSEP
- condition.label: human

compound | target.desc | potency estimated from few doses
O=C(O)Cc1ccccc1 [Phenylacetic acid, phenylacetic acid] | UniProtKB O95342 | < 7.5 mM
C[C@H](CCC(=O)NCC(=O)O)[C@H]1CC[C@H]2[C@@H]3[C@@H](O)C[C@@H]4C[C@H](O)CC[C@]4(C)[C@H]3CC[C@]12C [Glycoursodeoxycholic acid, glycoursodeoxycholic acid] | UniProtKB O95342 | < 0.01 mM

---

- target.desc: OAT3 (Homo sapiens, UniProt Q8TCC7)
- Sequence (Q8TCC7 whole entry): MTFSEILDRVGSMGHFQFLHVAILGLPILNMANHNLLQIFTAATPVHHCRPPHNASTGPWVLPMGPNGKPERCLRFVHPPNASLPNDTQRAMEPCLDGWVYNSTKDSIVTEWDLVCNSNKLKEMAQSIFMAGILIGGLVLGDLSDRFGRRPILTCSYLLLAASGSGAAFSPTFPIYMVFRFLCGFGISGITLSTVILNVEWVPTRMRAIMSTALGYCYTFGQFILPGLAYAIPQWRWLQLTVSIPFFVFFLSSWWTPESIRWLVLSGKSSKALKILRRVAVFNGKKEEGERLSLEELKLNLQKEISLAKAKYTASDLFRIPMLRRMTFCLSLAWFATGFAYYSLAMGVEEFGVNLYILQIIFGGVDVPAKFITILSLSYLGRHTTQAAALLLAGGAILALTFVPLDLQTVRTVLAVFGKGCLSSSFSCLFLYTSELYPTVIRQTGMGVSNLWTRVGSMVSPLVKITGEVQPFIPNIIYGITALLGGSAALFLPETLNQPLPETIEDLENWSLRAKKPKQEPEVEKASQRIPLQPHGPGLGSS
- test.method.notes: Inhibitor of OAT3, probe substrate uptake
- condition.label: read-out: Estimated IC50, OAT3; estimated from two concentrations

compound | target.desc | potency estimated from few doses
C[C@H](CCC(=O)NCC(=O)O)[C@H]1CC[C@H]2[C@@H]3[C@@H](O)C[C@@H]4C[C@H](O)CC[C@]4(C)[C@H]3CC[C@]12C [Glycoursodeoxycholic acid, glycoursodeoxycholic acid] | OAT3 (Homo sapiens, UniProt Q8TCC7) | < 100 µM
O=C(O)CCCc1ccccc1 [PB, sodium phenylbutyrate] | OAT3 (Homo sapiens, UniProt Q8TCC7) | < 25 µM
